Biological target: OCT1 (SLC22A1) (Homo sapiens, UniProt O15245)
Sequence (O15245 1-554): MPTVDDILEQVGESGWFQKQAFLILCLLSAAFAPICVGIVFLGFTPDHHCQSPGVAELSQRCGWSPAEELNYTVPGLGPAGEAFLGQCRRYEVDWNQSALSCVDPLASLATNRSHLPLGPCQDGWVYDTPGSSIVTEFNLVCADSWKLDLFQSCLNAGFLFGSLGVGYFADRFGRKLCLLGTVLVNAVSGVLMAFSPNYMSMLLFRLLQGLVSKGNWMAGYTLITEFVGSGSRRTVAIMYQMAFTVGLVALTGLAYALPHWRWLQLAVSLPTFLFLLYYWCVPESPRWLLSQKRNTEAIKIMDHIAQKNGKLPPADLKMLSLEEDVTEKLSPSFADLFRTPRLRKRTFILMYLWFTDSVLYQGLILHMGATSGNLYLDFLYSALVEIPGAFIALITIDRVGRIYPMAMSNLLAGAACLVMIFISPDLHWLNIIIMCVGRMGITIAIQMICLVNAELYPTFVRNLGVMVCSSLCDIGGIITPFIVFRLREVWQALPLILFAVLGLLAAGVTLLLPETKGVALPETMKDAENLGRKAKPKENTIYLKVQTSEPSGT
Assay: Cellular uptake into OCT1-overexpressing HEK293 cells vs EV control cells (HPLC-MS/MS)
Conditions: 10 μM substrate, 2 min, HEK293
endpointLabel: uptake ratio OCT1 (transporter-overexpressing cells over EV control cells): mean (±SD, N)

Some solved entries appear below for comparison.
>>> df
    compound        result
0    CCCCCCN  1.8 (1.4, 5)
1     CCCCCN  1.2 (0.5, 4)
2  CCN(CC)CC  1.2 (0.1, 4)
3     CC(C)N  1.3 (0.2, 3)

## Task Return value of uptake ratio OCT1 (transporter-overexpressing cells over EV control cells): mean (±SD, N) for input CCCCCCCN , no commentary.
## Result 2.5 (1.9, 6)

## Task Read off the recorded uptake ratio OCT1 (transporter-overexpressing cells over EV control cells): mean (±SD, N) for NCCO
## Result 0.6 (0.3, 4)

## Task Tell me uptake ratio OCT1 (transporter-overexpressing cells over EV control cells): mean (±SD, N) reported for CC(N)CN(CC(C)N)CC(C)N (stereo not shown)
## Result - ^d

## Task Input CNCCCO , output reported uptake ratio OCT1 (transporter-overexpressing cells over EV control cells): mean (±SD, N).
## Result 1.2 (0.2, 3)

## Task Find the measured uptake ratio OCT1 (transporter-overexpressing cells over EV control cells): mean (±SD, N) of NCC(O)CN and report it.
## Result 1.4 (0.6, 5)

## Task # return recorded uptake ratio OCT1 (transporter-overexpressing cells over EV control cells): mean (±SD, N) for input CC(C)CN
## Result 1.1 (0.2, 4)
